Biological target: T1, CD123 (target of Example 19) (Homo sapiens (Human), UniProt P26951 19-305, limits assumed)
T1 sequence: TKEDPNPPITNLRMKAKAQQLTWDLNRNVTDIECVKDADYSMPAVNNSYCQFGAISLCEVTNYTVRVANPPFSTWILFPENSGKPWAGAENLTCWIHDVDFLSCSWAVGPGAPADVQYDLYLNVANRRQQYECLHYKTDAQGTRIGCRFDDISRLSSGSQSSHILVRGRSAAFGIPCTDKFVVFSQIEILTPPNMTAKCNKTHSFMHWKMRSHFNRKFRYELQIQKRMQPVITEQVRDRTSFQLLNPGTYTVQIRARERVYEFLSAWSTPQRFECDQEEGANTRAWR
Assay: library selection; assay not described
PARAMETER: binding result

Please review the entries below; each comes with its answer.
BINDER	RECORDED MEASUREMENT
SEQ ID NO 121 (designed binder) MGSWYEFVIRLEAIEDRLWALGGSEAELAAFEKEIAAFESELQAYKGKGNPEVEVLRWYAADIRHELQAYRHN	binds
SEQ ID NO 77 (designed binder) MGSWWEFKEDLAEIKWFLEALGGSEAELAWFEHDIAKFEFELQYYKGKGNPEVEALRKEAAAIRDELQAYRHN	binds
SEQ ID NO 117 (designed binder) MGSWYEFYNRLSAIYARLQALGGSEAELAAFEKEIAAFESELQAYKGKGNPEVEDLRWYAADIRYMLQAYRHN	binds
SEQ ID NO 64 (designed binder) MGSWWEFEDRLWAIDRRLMALGGSEAELAVFEQMIAHFEQILQVYKGKGNPEVEALHFEAHAIGMELAAYRHN	binds

Would you kindly look at the next entry?
Query (binder): SEQ ID NO 86 (designed binder) MGSWYVFKDELAEIKQFLEALGGSEAELAWFEDDIAEFETQLQHYKGKGNPEVEALRKEAAAIRDELQAYRHN ; field requested: binding result
binds

Values from patent US20180251563A1
